TARGET UNDER TEST: Gwt1 (Saccharomyces cerevisiae, UniProt P47026)
Construct: Wildtype S. cerevisiae BY4741; endogenous in cells; host or cells: S. cerevisiae BY4741 (wild type)
Sequence (P47026 1-490): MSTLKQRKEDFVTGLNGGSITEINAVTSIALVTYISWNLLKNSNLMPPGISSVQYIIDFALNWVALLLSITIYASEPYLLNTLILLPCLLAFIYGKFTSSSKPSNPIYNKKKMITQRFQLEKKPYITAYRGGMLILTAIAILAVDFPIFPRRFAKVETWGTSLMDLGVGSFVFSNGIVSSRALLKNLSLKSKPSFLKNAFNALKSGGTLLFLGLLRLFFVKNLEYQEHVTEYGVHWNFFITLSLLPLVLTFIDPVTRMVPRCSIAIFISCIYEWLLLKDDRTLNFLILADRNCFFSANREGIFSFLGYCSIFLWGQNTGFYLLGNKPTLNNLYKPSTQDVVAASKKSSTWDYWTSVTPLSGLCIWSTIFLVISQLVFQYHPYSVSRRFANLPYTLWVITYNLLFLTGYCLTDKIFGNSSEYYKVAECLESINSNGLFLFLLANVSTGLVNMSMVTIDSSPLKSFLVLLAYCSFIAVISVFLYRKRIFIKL
PROTOCOL: Antifungal susceptibility testing, screening strains with plasmid-borne GWT1 (low or high copy)
Type: cell-based, S. cerevisiae
MEASUREMENT CONTEXT: EC50 Low Copy GWT1, Screening strains, low copy GWT1 plasmid
Description: Sensitivity to gepinacin was determined in 96-well, flat bottom microtiter plates using a modification of the NCCLS broth microdilution protocol CLS M27-A3 and RPMI as culture medium. Fungi were inoculated at ˜10^3 cells per ml and incubated for 48 hours at 37° C. after which plates were sealed, shaken and the optical density read at 600 nm (OD600) on a Tecan Safire 2 plate reader. […] Plates were then visually scored as specified by CLSI document M38-A2 to determine the MIC50 and MIC80. […]
Assign labels as follows, please: YES for EC50 below 5 µM; NO for EC50 equal to or exceeding 5 µM.

Examples from the recorded data:
Q) In plain terms, does `COc1ccc(NC(=O)COc2cccc(OCc3ccccc3)c2)cc1` come in under 5 µM for EC50?
A) NO

Q) In plain terms, does `CC(C)COc1cccc(OCC(=O)Nc2ccc(F)cc2)c1` come in under 5 µM for EC50?
A) YES

Q) In plain terms, does COc1ccc(NC(=O)C(C)Oc2cccc(OCC(C)C)c2)cc1 (centres unmarked) come in under 5 µM for EC50?
A) NO

Consider now this further compound.
Q) In plain terms, does `COc1ccc(NC(=O)COc2cccc(OCCC(C)C)c2)cc1` come in under 5 µM for EC50?
A) YES
